system: uterus of ovariectomized (OVX) rats; test: Uterine weight in ovariectomized rat post-menopausal model; assay type: in vivo, Sprague Dawley rats; conditions: oral, daily for 4 days, dose 10.0 mg/kg
propertyLabel: Uterine Weight % inch (Uterine Weight % increase versus the ovarierectomized controls) (%)

{"givenSmiles": "Cl.O=C(c1ccc(OCCN2CCCCC2)c(F)c1)c1c(-c2ccc(O)cc2)sc2cc(O)ccc12", "measured": 12.5}
{"givenSmiles": "Cl.N#Cc1cc(C(=O)c2c(-c3ccc(O)cc3)sc3cc(O)ccc23)ccc1OCCN1CCCCC1", "measured": 16.8}
{"givenSmiles": "Cc1cc(C(=O)c2c(-c3ccc(O)cc3)sc3cc(O)ccc23)cc(C)c1OCCN1CCCCC1.Cl", "measured": 27.4}
